Listed below: kon values for each entry.
- System Name: T1, human MAdCAM (human, UniProt Q13477 19-317, limits assumed)
- T1 construct: also called huMAdCAM; human MAdCAM-1
- T1 sequence (looked up): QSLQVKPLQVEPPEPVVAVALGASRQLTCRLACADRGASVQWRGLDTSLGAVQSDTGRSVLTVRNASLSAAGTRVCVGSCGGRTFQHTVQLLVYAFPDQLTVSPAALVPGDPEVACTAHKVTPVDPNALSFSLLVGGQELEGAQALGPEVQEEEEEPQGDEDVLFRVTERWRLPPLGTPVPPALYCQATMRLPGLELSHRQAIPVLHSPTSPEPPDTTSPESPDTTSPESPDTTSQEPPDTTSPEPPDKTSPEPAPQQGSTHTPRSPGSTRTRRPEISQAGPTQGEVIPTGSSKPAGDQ
- Measurement Description: BLI (Octet), binder on anti-human Fc tips
Expressed in M⁻¹ s⁻¹, but write only the number.

// worked examples, kon included
binder="MIAB145 (antibody, V domains shown, tested with human Fc; also called MIAB145-001) VH: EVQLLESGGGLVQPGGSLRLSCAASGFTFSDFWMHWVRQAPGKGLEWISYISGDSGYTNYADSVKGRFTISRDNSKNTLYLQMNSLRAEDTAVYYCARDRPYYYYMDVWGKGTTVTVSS VL: DIQMTQSPSSLSASVGDRVTITCRASQSISRSLAWYQQKPGKAPKLLIYAASSLQSGVPSRFSGSGSGTDFTLTISSLQPEDFATYYCQQYKSYPVTFGQGTKVEIK" result_type=kon unit_abbreviation="M⁻¹ s⁻¹" value_observed=405000
binder="MIAB153 (antibody, V domains shown, tested with human Fc) VH: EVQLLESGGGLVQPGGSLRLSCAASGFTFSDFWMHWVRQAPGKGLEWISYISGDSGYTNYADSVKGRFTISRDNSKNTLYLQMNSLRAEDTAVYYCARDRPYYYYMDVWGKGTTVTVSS VL: DIQMTQSPSSLSASVGDRVTITCRASQSVSSSLNWYQQKPGKAPKLLIYAASSLQSGVPSRFSGSGSGTDFTLTISSLQPEDFATYYCQQYKSYPVTFGQGTKVEIK" result_type=kon unit_abbreviation="M⁻¹ s⁻¹" value_observed=64800
binder="MIAB174 (antibody, V domains shown, tested with human Fc; also called MIAB174-001) VH: EVQLLESGGGLVQPGGSLRLSCAASGFTFSDYWMHWVRQAPGKGLEWISYISGDSGYTNYADSVKGRFTISRDNSKNTLYLQMNSLRAEDTAVYYCARDRPYYYYMDVWGKGTTVTVSS VL: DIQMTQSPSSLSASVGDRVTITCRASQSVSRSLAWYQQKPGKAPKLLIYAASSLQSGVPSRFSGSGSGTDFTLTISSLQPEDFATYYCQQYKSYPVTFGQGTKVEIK" result_type=kon unit_abbreviation="M⁻¹ s⁻¹" value_observed=445000
binder="MIAB148 (antibody, V domains shown, tested with human Fc) VH: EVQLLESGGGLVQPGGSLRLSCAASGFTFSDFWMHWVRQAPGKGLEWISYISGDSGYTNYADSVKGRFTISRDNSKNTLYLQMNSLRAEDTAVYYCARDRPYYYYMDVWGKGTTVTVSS VL: DIQMTQSPSSLSASVGDRVTITCRASQSVSRSLNWYQQKPGKAPKLLIYAASSLQSGVPSRFSGSGSGTDFTLTISSLQPEDFATYYCQQYKSYPVTFGQGTKVEIK" result_type=kon unit_abbreviation="M⁻¹ s⁻¹" value_observed=117000
binder="MIAB169 (antibody, V domains shown, tested with human Fc; also called MIAB169-CHO; MIAB169-HEK) VH: EVQLLESGGGLVQPGGSLRLSCAASGFTFSDFWMHWVRQAPGKGLEWISYISGDSGYTNYADSVKGRFTISRDNSKNTLYLQMNSLRAEDTAVYYCARDRPYYYIMDVWGKGTTVTVSS VL: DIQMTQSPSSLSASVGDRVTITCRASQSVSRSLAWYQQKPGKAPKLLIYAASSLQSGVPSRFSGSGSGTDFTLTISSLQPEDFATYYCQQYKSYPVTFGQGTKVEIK" result_type=kon unit_abbreviation="M⁻¹ s⁻¹" value_observed=278000
binder="MIAB151 (antibody, V domains shown, tested with human Fc) VH: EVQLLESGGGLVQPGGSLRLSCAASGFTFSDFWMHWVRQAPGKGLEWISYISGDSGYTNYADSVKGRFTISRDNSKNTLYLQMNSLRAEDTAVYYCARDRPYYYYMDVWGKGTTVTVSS VL: DIQMTQSPSSLSASVGDRVTITCRASQSISRSLNWYQQKPGKAPKLLIYAASSLQSGVPSRFSGSGSGTDFTLTISSLQPEDFATYYCQQYKSYPVTFGQGTKVEIK" result_type=kon unit_abbreviation="M⁻¹ s⁻¹" value_observed=98700
binder="MIAB149 (antibody, V domains shown, tested with human Fc; also called MIAB149-001) VH: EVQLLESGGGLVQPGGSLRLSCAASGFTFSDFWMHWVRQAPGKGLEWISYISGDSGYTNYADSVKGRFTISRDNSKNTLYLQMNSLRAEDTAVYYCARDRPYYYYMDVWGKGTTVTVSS VL: DIQMTQSPSSLSASVGDRVTITCRASQSISSSLAWYQQKPGKAPKLLIYAASSLQSGVPSRFSGSGSGTDFTLTISSLQPEDFATYYCQQYKSYPVTFGQGTKVEIK" result_type=kon unit_abbreviation="M⁻¹ s⁻¹" value_observed=376000
binder="MIAB184 (antibody, V domains shown, tested with human Fc; also called MIAB184-001) VH: EVQLLESGGGLVQPGGSLRLSCAASGFTFSSYWMHWVRQAPGKGLEWVSAISGSGGSTYYADSVKGRFTISRDNSKNTLYLQMNSLRAEDTAVYYCARDRPYYYYMDVWGKGTTVTVSS VL: DIQMTQSPSSLSASVGDRVTITCRASQSISSSLAWYQQKPGKAPKLLIYAASSLQSGVPSRFSGSGSGTDFTLTISSLQPEDFATYYCQQYKSYPVTFGQGTKVEIK" result_type=kon unit_abbreviation="M⁻¹ s⁻¹" value_observed=145000
binder="MIAB177 (antibody, V domains shown, tested with human Fc; also called MIAB177-001) VH: EVQLLESGGGLVQPGGSLRLSCAASGFTFSDFWMHWVRQAPGKGLEWVSAISGSGGSTYYADSVKGRFTISRDNSKNTLYLQMNSLRAEDTAVYYCARDRPYYYYMDVWGKGTTVTVSS VL: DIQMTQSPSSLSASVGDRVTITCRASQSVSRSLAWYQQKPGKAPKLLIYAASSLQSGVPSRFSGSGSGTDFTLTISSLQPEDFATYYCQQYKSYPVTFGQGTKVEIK" result_type=kon unit_abbreviation="M⁻¹ s⁻¹" value_observed=391000

Then this binder:
# kon (binder: MIAB175 (antibody, V domains shown, tested with human Fc; also called MIAB175-001) VH: EVQLLESGGGLVQPGGSLRLSCAASGFTFSSYWMHWVRQAPGKGLEWISYISGDSGYTNYADSVKGRFTISRDNSKNTLYLQMNSLRAEDTAVYYCARDRPYYYYMDVWGKGTTVTVSS VL: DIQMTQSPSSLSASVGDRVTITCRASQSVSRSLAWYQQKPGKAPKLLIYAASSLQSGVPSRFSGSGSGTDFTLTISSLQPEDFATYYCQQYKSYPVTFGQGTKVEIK ) is 471000
